The reported measurements were obtained from the supplement of paper PMC10201428.

B1: library; a variant is named by its letters at N, in order (parent)
chain: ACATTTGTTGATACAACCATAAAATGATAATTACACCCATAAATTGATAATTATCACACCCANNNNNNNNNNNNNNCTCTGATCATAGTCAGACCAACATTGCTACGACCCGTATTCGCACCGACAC

- Variants of: B1
- Measurement protocol: relative integration efficiency (T-RL orientation) vs wild-type transposon end (log2 (normalized fold change)); transposon end mutated: right end (5 bp flank + 75 bp right end); higher = more efficient transposition
- Condition description: with VchCAST RNA-guided transposition machinery (E. coli BL21(DE3) host, lacZ target)
Assay endpoint: relative integration efficiency (log2)

[[record]]
item_sequence = "ACATTTGTTGATACAACCATAAAATGATAATTACACCCATAAATTGATAATTATCACACCCATAAATTGCGCGTGCCTCTGATCATAGTCAGACCAACATTGCTACGACCCGTATTCGCACCGACAC"
assay_endpoint = "relative integration efficiency (log2)"
assay_value = -0.618

[[record]]
item_sequence = "ACATTTGTGGATACAACCATAAAATGATAATTACACCCATAAATTGATAATTATCACACCCAATTTAACTATAACGCTCTGATCATAGTCAGACCAACATTGCTACGACCCGTATTCGCACCGACAC"
assay_endpoint = "relative integration efficiency (log2)"
assay_value = -0.534

[[record]]
item_sequence = "ACATTTGTTGAGACAACCATAAAATGATAATTACACCCATAAATTGATAATTATCACACCCATAAATTGATATTGCCTCTGATCATAGTCAGACCAACATTGCTACGACCCGTATTCGCACCGACAC"
assay_endpoint = "relative integration efficiency (log2)"
assay_value = -0.147

[[record]]
item_sequence = "ACATTTGTTGATACAACCATAAAATGATAATTACACCCATAAATTGATAATTATCACACCCATAAATTGATAGGTACTCTGATCATAGTCAGACCAACATTGCTACGACCCGTATTCGCACCGACAC"
assay_endpoint = "relative integration efficiency (log2)"
assay_value = -0.219

[[record]]
item_sequence = "TCATTTGTTGATACAACCATAAAATGATAATTACACCCATAAATTGATAATTATCACACCCATAAATTGATATTGCCTCTGATCATAGTCAGACCAACATTGCTACGACCCGTATTCGCACCGACAC"
assay_endpoint = "relative integration efficiency (log2)"
assay_value = -0.0487

[[record]]
item_sequence = "ACATTTGTTGATACAACCATAAAATGATAATTACACCCATAAATTGATAAATATCACACCCAATTTAACTATAACGCTCTGATCATAGTCAGACCAACATTGCTACGACCCGTATTCGCACCGACAC"
assay_endpoint = "relative integration efficiency (log2)"
assay_value = -1.46

[[record]]
item_sequence = "ACATTTGTTGATACAACCATAAAATGATAATTACACCCATAAATTGATAATTATCACACCCAGCAATTGATATTGCCTCTGATCATAGTCAGACCAACATTGCTACGACCCGTATTCGCACCGACAC"
assay_endpoint = "relative integration efficiency (log2)"
assay_value = -0.508

[[record]]
item_sequence = "ACATTTGTTGATACAACAATAAAATGATAATTACACCCATAAATTGATAATTATCACACCCAATTTAACTATAACGCTCTGATCATAGTCAGACCAACATTGCTACGACCCGTATTCGCACCGACAC"
assay_endpoint = "relative integration efficiency (log2)"
assay_value = -0.906

[[record]]
item_sequence = "ACATTTGTTGATACAACCACAAAATGATAATTACACCCATAAATTGATAATTATCACACCCATAAATTGATATTGCCTCTGATCATAGTCAGACCAACATTGCTACGACCCGTATTCGCACCGACAC"
assay_endpoint = "relative integration efficiency (log2)"
assay_value = -0.448

[[record]]
item_sequence = "ACATTTGTTGATACAACCATAAAATGATAATTACACCCATAAATTGATAATTATTACACCCATAAATTGATATTGCCTCTGATCATAGTCAGACCAACATTGCTACGACCCGTATTCGCACCGACAC"
assay_endpoint = "relative integration efficiency (log2)"
assay_value = -0.293

[[record]]
item_sequence = "ACATTTGTTGATACAACCATAAAATGATAATTACACCCATAAATTGATAATTATCACACCCATAAATTGTATATGCCTCTGATCATAGTCAGACCAACATTGCTACGACCCGTATTCGCACCGACAC"
assay_endpoint = "relative integration efficiency (log2)"
assay_value = -0.247

[[record]]
item_sequence = "ACATTTGTTGATACAACCATAAAATGATAATTACACCCATAAATTGATAATTATCACACCCATAAATTGATATTTCCTCTGATCATAGTCAGACCAACATTGCTACGACCCGTATTCGCACCGACAC"
assay_endpoint = "relative integration efficiency (log2)"
assay_value = -0.0163

[[record]]
item_sequence = "ACATTTGTTGATACAACCATAAAATGATAATTACACCCATAAATTGATAATTATCACACCCATAACGGTATATTGCCTCTGATCATAGTCAGACCAACATTGCTACGACCCGTATTCGCACCGACAC"
assay_endpoint = "relative integration efficiency (log2)"
assay_value = -0.559

[[record]]
item_sequence = "ACATTTGTTGATACAACCATAAAATGATAATTACACCCATGAATTGATAATTATCACACCCATAAATTGATATTGCCTCTGATCATAGTCAGACCAACATTGCTACGACCCGTATTCGCACCGACAC"
assay_endpoint = "relative integration efficiency (log2)"
assay_value = -0.104

[[record]]
item_sequence = "ACATTTGATGATACAACCATAAAATGATAATTACACCCATAAATTGATAATTATCACACCCAATTTAACTATAACGCTCTGATCATAGTCAGACCAACATTGCTACGACCCGTATTCGCACCGACAC"
assay_endpoint = "relative integration efficiency (log2)"
assay_value = -1.56

[[record]]
item_sequence = "ACATTTGTTGATACAACCATAAAATGATAATTACACCCATAAATTGATAATTATCACCCCCATAAATTGATATTGCCTCTGATCATAGTCAGACCAACATTGCTACGACCCGTATTCGCACCGACAC"
assay_endpoint = "relative integration efficiency (log2)"
assay_value = -0.461

[[record]]
item_sequence = "ACATTTGTTGATACAACCATAACATGATAATTACACCCATAAATTGATAATTATCACACCCAATTTAACTATAACGCTCTGATCATAGTCAGACCAACATTGCTACGACCCGTATTCGCACCGACAC"
assay_endpoint = "relative integration efficiency (log2)"
assay_value = -1.16

[[record]]
item_sequence = "ACATTTGTTGATACAACCATAAAATGATAATTACACCCATAAATTGATAATTATCACACCCATAACGTGATATTGCCTCTGATCATAGTCAGACCAACATTGCTACGACCCGTATTCGCACCGACAC"
assay_endpoint = "relative integration efficiency (log2)"
assay_value = -0.0871

[[record]]
item_sequence = "ACATGTGTTGATACAACCATAAAATGATAATTACACCCATAAATTGATAATTATCACACCCATAAATTGATATTGCCTCTGATCATAGTCAGACCAACATTGCTACGACCCGTATTCGCACCGACAC"
assay_endpoint = "relative integration efficiency (log2)"
assay_value = -0.23

[[record]]
item_sequence = "ACATTTGTTGATACAACCATAAAATGATAATTACAGCCATAAATTGATAATTATCACACCCAATTTAACTATAACGCTCTGATCATAGTCAGACCAACATTGCTACGACCCGTATTCGCACCGACAC"
assay_endpoint = "relative integration efficiency (log2)"
assay_value = -1.16

[[record]]
item_sequence = "ACATTTGTTGATACAACCATAAAATGATAATTACACCCATAAATTGATAACTATCACACCCATAAATTGATATTGCCTCTGATCATAGTCAGACCAACATTGCTACGACCCGTATTCGCACCGACAC"
assay_endpoint = "relative integration efficiency (log2)"
assay_value = 0.0252

[[record]]
item_sequence = "ACATATGTTGATACAACCATAAAATGATAATTACACCCATAAATTGATAATTATCACACCCATAAATTGATATTGCCTCTGATCATAGTCAGACCAACATTGCTACGACCCGTATTCGCACCGACAC"
assay_endpoint = "relative integration efficiency (log2)"
assay_value = 0.0941

[[record]]
item_sequence = "ACATTTGTTGATACAACCATAAAATGATAATTACACCCATAAATTGATAATTATCACACCCATAAATTGATTAACCCTCTGATCATAGTCAGACCAACATTGCTACGACCCGTATTCGCACCGACAC"
assay_endpoint = "relative integration efficiency (log2)"
assay_value = -0.157

